# TARGET_SYSTEM: T1, AP2 µ2 C-terminal subdomain (C-µ2), residues 160-435 of rat µ2 (rat, UniProt P84092 160-435)
# T1 sequence: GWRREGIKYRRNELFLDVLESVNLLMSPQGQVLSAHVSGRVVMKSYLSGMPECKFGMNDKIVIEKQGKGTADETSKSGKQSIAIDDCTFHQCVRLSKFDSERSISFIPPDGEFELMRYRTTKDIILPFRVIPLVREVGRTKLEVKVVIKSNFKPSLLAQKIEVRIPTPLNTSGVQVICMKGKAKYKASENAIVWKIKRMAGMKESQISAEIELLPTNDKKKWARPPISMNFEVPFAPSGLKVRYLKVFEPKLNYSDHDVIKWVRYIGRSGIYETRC
# PROCEDURE_SUMMARY: ITC
Listed binders paired with reported Kd

[Q] Quick one: Kd for WKLGFFKRKYEKMTKNPDEIDETTELSS [α2 integrin peptide (WKLGFFKRKYEKMTKNPDEIDETTELSS)] ?
[A] ~50 µM

[Q] Entry to check: YKLGFFKRSLPYGTAMEKAQLKPPATSDA [α5-integrin peptide (YKLGFFKRSLPYGTAMEKAQLKPPATSDA)]
[A] > 300 µM

[Q] Entry to check: KLLMIIHDRREFAKFEKEKMNAKWDTGENPIYKSAVTTVVNPKYEGK [β1-integrin peptide]
[A] > 300 µM
